# TEST SYSTEM: human FXIIIa (Homo sapiens, UniProt P00488)
# Construct: purchased Haematologic Technologies (Essex Junction, VT)
# Sequence (P00488 39-732 limits assumed): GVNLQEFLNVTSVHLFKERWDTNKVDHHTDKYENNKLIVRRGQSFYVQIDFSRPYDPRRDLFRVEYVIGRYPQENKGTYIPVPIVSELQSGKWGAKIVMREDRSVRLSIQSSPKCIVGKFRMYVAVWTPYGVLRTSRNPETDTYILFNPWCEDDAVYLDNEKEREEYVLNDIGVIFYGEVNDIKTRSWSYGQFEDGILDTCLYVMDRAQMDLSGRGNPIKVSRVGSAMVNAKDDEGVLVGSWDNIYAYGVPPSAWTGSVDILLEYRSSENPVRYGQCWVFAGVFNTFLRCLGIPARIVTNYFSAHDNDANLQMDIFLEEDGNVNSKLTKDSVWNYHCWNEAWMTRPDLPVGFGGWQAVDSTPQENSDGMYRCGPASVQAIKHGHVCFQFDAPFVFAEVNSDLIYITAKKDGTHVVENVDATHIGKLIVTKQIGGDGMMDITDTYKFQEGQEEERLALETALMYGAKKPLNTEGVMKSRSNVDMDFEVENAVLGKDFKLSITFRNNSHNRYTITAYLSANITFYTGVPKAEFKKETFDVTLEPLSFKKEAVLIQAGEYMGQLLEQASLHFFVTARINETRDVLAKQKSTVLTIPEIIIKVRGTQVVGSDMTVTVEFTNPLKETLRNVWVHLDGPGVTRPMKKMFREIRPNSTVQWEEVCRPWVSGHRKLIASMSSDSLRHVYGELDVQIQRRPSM
# TEST: bisubstrate, fluorescence-based transglutamination assay (dansylcadaverine / N,N-dimethylcasein)
# Type: biochemical
# ASSAY CONDITIONS: pH 8, 200 μM; pH 8.0, 37°C; read-out: FXIIIa inhibition at 200 μM (%)

>  <SAMPLE SMILES>
O=c1c(OS(=O)(=O)O)c(-c2ccc(OS(=O)(=O)O)c(OS(=O)(=O)O)c2)oc2cc(OS(=O)(=O)O)cc(OCCOc3cc(OS(=O)(=O)O)cc4oc(-c5ccc(OS(=O)(=O)O)c(OS(=O)(=O)O)c5)c(OS(=O)(=O)O)c(=O)c34)c12

>  <inhibition at 200 µM (%)>
65

$$$$
>  <SAMPLE SMILES>
O=c1c(OS(=O)(=O)O)c(-c2ccc(OS(=O)(=O)O)c(OS(=O)(=O)O)c2)oc2cc(OS(=O)(=O)O)cc(OCCCCOc3cc(OS(=O)(=O)O)cc4oc(-c5ccc(OS(=O)(=O)O)c(OS(=O)(=O)O)c5)c(OS(=O)(=O)O)c(=O)c34)c12

>  <inhibition at 200 µM (%)>
89

$$$$
>  <SAMPLE SMILES>
O=c1c(OS(=O)(=O)O)c(-c2ccc(OS(=O)(=O)O)c(OS(=O)(=O)O)c2)oc2cc(OS(=O)(=O)O)cc(OC/C=C/COc3cc(OS(=O)(=O)O)cc4oc(-c5ccc(OS(=O)(=O)O)c(OS(=O)(=O)O)c5)c(OS(=O)(=O)O)c(=O)c34)c12

>  <inhibition at 200 µM (%)>
58

$$$$
